Procedure text: Stabilities of tracer level complexes under challenge (10 mM cysteine / 0.05M phosphate)
Format: physicochemical
Experimental setup: 0.05M phosphate with 10 mM cysteine, in competition with 10 mM free cysteine; read-out: t½ (converted)
Non-standard residues stand in square brackets, D forms with d. Residues, ends and D or L forms follow the SMILES beside them.
Value type: half-life

stdin: Return value of half-life for input CC(=O)N[C@@H](CS)C(=O)N[C@@H](CCC(=O)O)C(=O)N[C@@H](Cc1c[nH]cn1)C(=O)N[C@H](Cc1ccccc1)C(=O)N[C@@H](CCCNC(=N)N)C(=O)N[C@@H](Cc1c[nH]c2ccccc12)C(=O)N[C@@H](CS)C(=O)N[C@@H](CCCCN)C(=O)N1CCC[C@H]1C(=O)N[C@H](C(N)=O)C(C)C (188Re complex, metal not drawn) [^188ReMSH] (Ac-CEH[dF]RWCKPV-NH2) , no commentary.
stdout: ~4 h

---

System tested: α-MSH receptor on B16-F1 murine melanoma cells (Mus musculus)
Construct: endogenous in cells; host or cells: B16-F1 murine melanoma cells
Sequence (Q01727 whole entry): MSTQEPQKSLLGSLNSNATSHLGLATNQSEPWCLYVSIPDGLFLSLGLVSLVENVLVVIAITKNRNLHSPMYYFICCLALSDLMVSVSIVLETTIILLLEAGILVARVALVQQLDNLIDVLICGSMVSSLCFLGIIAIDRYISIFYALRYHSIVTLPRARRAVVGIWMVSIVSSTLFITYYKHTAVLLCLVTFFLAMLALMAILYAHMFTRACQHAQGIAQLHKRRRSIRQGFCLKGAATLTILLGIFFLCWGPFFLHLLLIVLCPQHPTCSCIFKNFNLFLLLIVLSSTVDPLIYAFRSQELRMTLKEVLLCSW
Procedure text: Competitive receptor binding assay with ^125I-[Nle^4, D-Phe^7]-α-MSH
Experimental setup: read-out: receptor binding affinity
Value type: pKi
Give only the number. pKi is defined as minus log10 of concentration in molar units.

stdin: Answer with the recorded pKi for the substance listed here: rhenium complex of NAc-Cys-Cys-Glu-His-D-Phe-Arg-Trp-Cys-Lys-Pro-Val-NH2, APOMSH analog with additional N-terminal Cys [ReCCMSH]
stdout: 8.54
